Values compiled from patent US20210047372A1.

TARGET OR SYSTEM: T1, interleukin 6 (IL-6) (UniProt P05231 30-212)
T1 construct: also called b-IL-6
PROCEDURE DETAILS: SPR, Biacore T200; target immobilized on CM5, His6-tagged Y variant injected; 1:1 Langmuir
Protocol: Kinetic constants (kₐ and kd) and affinities (KD) were determined for Hiss-tagged Y variants using a Biacore T200 instrument (GE Healthcare). […] Immobilization was performed using amine coupling chemistry according to the manufacturer's protocol and PBS pH 7.4 supplemented with 0.1 Tween20 (PBST 0.1%) as running buffer. […] Kinetic constants were calculated from the sensorgrams using the Langmuir 1:1 model of Biacore T200 Evaluation software 2.0 (GE Healthcare).
MEASUREMENT KIND: Kd (nM)
One number for each entry, in nM.

- BINDER: "Y02699 (designed binder, Y02444 with Q26E) MGSSHHHHHHGSSLAEAKEAAIAELDSKGVGAVEIKQIEEALLVEIVQLLKQAILAVLPA"
  READING UNIT: "nM"
  Kd: 200
- BINDER: "Y02701 (designed binder, Y02415 with K15Y) MGSSHHHHHHGSSLAEAKEAAIAELDSYGVGAGDIKDIQDALLVEIVQLLKQAILAVLPA"
  READING UNIT: "nM"
  Kd: 210

Then there is this binder:
Query string: Report measured Kd; entry is Y02495 (designed binder, From library Ylib002Naive.I) MGSSHHHHHHGSSLAEAKEAAIAELDSKGVGAEEIKEIQGAMLVEIVQLLKQAILAVLPA
Result string: 240
